Each recorded value in this set is attributed to the supplement of paper PMC12067926.

tested on: Paenibacillus 1 (Paenibacillus castaneae); assay: relative growth (AUC of 72 h growth curve relative to DMSO control, dAUC) (ratio); higher = more growth (less inhibition), active = hit call of the paper; settings: 20 µM
Here the recorded relative growth is given for each entry.
measured-metric: relative growth

1. COCC(=O)N(c1c(C)cccc1C)[C@H](C)C(=O)OC: 1.05 (inactive)
2. COP(=S)(OC)Oc1nc(Cl)c(Cl)cc1Cl: 0.874 (inactive)
3. CO/C=C(/C(=O)OC)c1ccccc1Oc1cc(Oc2ccccc2C#N)ncn1: 1.01 (inactive)
4. CCNC(=O)NC(=O)/C(C#N)=N/OC: 0.994 (inactive)
5. CCCCCCCCCCCCNC(=N)N: 0.893 (inactive)
6. CC(C1CC1)C(O)(Cn1cncn1)c1ccc(Cl)cc1 (configuration not stated): 0.959 (inactive)
7. CNC(=O)CSP(=S)(OC)OC: 0.975 (inactive)

###

system: Bacillus 1 (Bacillus foraminis); assay: relative growth (AUC of 72 h growth curve relative to DMSO control, dAUC) (ratio); higher = more growth (less inhibition), active = hit call of the paper; details: 20 µM
measured-metric: relative growth

1) OC(Cc1ccccc1Cl)(Cn1nc[nH]c1=S)C1(Cl)CC1 (stereo not given): 0.988
2) CN(C)C(CSS(=O)(=O)O)CSS(=O)(=O)O: 1.07
3) Fc1ccc([C@]2(Cn3cncn3)O[C@H]2c2ccccc2Cl)cc1 (racemic): 0.994
4) CSc1nc(NC(C)C)nc(NC(C)C)n1: 0.945
5) CC(C)(C)c1ccc(CSc2cnn(C(C)(C)C)c(=O)c2Cl)cc1: 1.03
6) CS(=O)(=O)NC(=O)c1cc(Oc2ccc(C(F)(F)F)cc2Cl)ccc1[N+](=O)[O-]: 1.04
7) CC1(C)C(C(=O)OC(C#N)c2cccc(Oc3ccccc3)c2)C1(C)C (stereo not given): 0.917
8) COc1cccc(C(=O)NN(C(=O)c2cc(C)cc(C)c2)C(C)(C)C)c1C: 0.966
9) CCOCN(C(=O)CCl)c1c(C)cccc1CC: 1
10) CCC(=O)Nc1ccc(Cl)c(Cl)c1: 0.957

###

// reported relative growth for each item listed
system: Pseudomonas 5 (Pseudomonas baetica); assay: relative growth (AUC of 72 h growth curve relative to DMSO control, dAUC) (ratio); higher = more growth (less inhibition), active = hit call of the paper; conditions: 20 µM
measured-metric: relative growth

1) COc1ccc(-c2ccccc2)cc1NNC(=O)OC(C)C: 1.08
2) CCOCn1c(-c2ccc(Cl)cc2)c(C#N)c(Br)c1C(F)(F)F: 0.998
3) CC(C)(C)C(O)(CCc1ccc(Cl)cc1)Cn1cncn1 (configuration not stated): 0.979
4) OC(Cn1cncn1)(c1ccc(F)cc1)c1ccccc1F (configuration not stated): 1
5) CCc1cnc(C2=NC(C)(C(C)C)C(=O)N2)c(C(=O)O)c1 (configuration not stated): 1.01
6) COP(=O)(NC(C)=O)SC (configuration not stated): 1.02
7) COC(=O)NC(=S)Nc1ccccc1NC(=S)NC(=O)OC: 1.06
8) N#Cc1c(Cl)c(Cl)c(Cl)c(C#N)c1Cl: 1.01
9) CCOC(=O)CC(SP(=S)(OC)OC)C(=O)OCC (configuration not stated): 0.994
10) CCOc1ccc(C(C)(C)COCc2cccc(Oc3ccccc3)c2)cc1: 0.991
11) CC(C)(C)[C@@H](O)[C@H](Oc1ccc(Cl)cc1)n1cncn1: 0.963
12) O=C1C2CC=CCC2C(=O)N1SC(Cl)(Cl)Cl (configuration not stated): 0.954

###

system: Prolinoborus 1 (Prolinoborus fasciculus); experiment: relative growth (AUC of 72 h growth curve relative to DMSO control, dAUC) (ratio); higher = more growth (less inhibition), active = hit call of the paper; details: 20 µM
measured-metric: relative growth

1. N#CCNC(=O)c1cnccc1C(F)(F)F: 1.03
2. Cc1nnc(-c2ccccc2)c(=O)n1N: 0.97
3. O=C1C2(Cl)C3(Cl)C4(Cl)C(Cl)(Cl)C5(Cl)C3(Cl)C1(Cl)C5(Cl)C24Cl (configuration not stated): 0.943
4. Cc1cc(C)nc(Nc2ccccc2)n1: 0.979
5. CCCCc1c(C)nc(NCC)nc1OS(=O)(=O)N(C)C: 1.04
6. CON(C)C(=O)Nc1ccc(Cl)c(Cl)c1: 0.886
7. CCOc1ccc(C(C)(C)COCc2cccc(Oc3ccccc3)c2)cc1: 0.909
8. Cc1cc(C(F)(C(F)(F)F)C(F)(F)F)ccc1NC(=O)c1cccc(I)c1C(=O)NC(C)(C)CS(C)(=O)=O: 0.933
9. O=C1C2CC=CCC2C(=O)N1SC(Cl)(Cl)Cl (configuration not stated): 0.598
10. COP(=O)(OC)OC=C(Cl)Cl: 0.895
11. COP(=O)(NC(C)=O)SC (configuration not stated): 1.03
12. N#C/N=C1\SCCN1Cc1ccc(Cl)nc1: 1.03

###

# maps each entry to its relative growth
tested on: Pseudomonas 2 (Pseudomonas vancouverensis); test: relative growth (AUC of 72 h growth curve relative to DMSO control, dAUC) (ratio); higher = more growth (less inhibition), active = hit call of the paper; conditions: 20 µM
measured-metric: relative growth

1) COCC(=O)N(c1c(C)cccc1C)C(C)C(=O)OC (stereo not given): 1.01
2) COc1cc(OC)nc(NC(=O)NS(=O)(=O)c2ncccc2C(=O)N(C)C)n1: 1
3) COP(N)(=O)SC (stereo not given): 0.982
4) CC(C)CC(C)c1sccc1NC(=O)c1cn(C)nc1C(F)(F)F (stereo not given): 0.985
5) CCOC(=O)CC(SP(=S)(OC)OC)C(=O)OCC (stereo not given): 1.05
6) CCCC(Cn1cncn1)c1ccc(Cl)cc1Cl (stereo not given): 0.994
7) CCOCN(C(=O)CCl)c1c(C)cccc1CC: 0.978
8) Cc1cc(C)nc(Nc2ccccc2)n1: 0.956
9) CCc1nn(C)c(C(=O)NCc2ccc(Oc3ccc(C)cc3)cc2)c1Cl: 1.02
10) Cc1cc(C2CC2)nc(Nc2ccccc2)n1: 1

###

tested on: Pseudomonas 1 (Pseudomonas baetica); assay: relative growth (AUC of 72 h growth curve relative to DMSO control, dAUC) (ratio); higher = more growth (less inhibition), active = hit call of the paper; conditions: 20 µM
Label rule, in plain words: relative growth of 1 and up is t, under 1 is f.

1. CO/N=C(/C(=O)OC)c1ccccc1CO/N=C(\C)c1cccc(C(F)(F)F)c1: t
2. Cc1cc(C)c(C2=C(OC(=O)CC(C)(C)C)C3(CCCC3)OC2=O)c(C)c1: t
3. CN1COCN(Cc2cnc(Cl)s2)/C1=N\[N+](=O)[O-]: f
4. O=C(NC(=O)c1c(F)cccc1F)Nc1ccc(Cl)cc1: t
5. COc1ncc(F)c2nc(S(=O)(=O)Nc3c(F)cccc3F)nn12: t

###

system: Flavobacterium 1 (Flavobacterium glaciei); assay: relative growth (AUC of 72 h growth curve relative to DMSO control, dAUC) (ratio); higher = more growth (less inhibition), active = hit call of the paper; settings: 20 µM;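 active = growth AUC significantly below the DMSO wells by Dunnett test; inactive = the rest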
Labels: 1 = active, 0 = inactive

1) N#Cc1nn(-c2c(Cl)cc(C(F)(F)F)cc2Cl)c(N)c1[S+]([O-])C(F)(F)F (stereo not given): 0
2) CC(Oc1ccc(Oc2nc3ccc(Cl)cc3o2)cc1)C(=O)O (stereo not given): 0
3) CO/C=C(/C(=O)OC)c1ccccc1Oc1cc(Oc2ccccc2C#N)ncn1: 0
4) N#CC(CCc1ccc(Cl)cc1)(Cn1cncn1)c1ccccc1 (stereo not given): 0
5) CC[C@H]1CCC[C@H](O[C@H]2CC[C@H](N(C)C)[C@@H](C)O2)[C@@H](C)C(=O)C2=C[C@@H]3[C@@H](C=C(C)[C@@H]4C[C@@H](O[C@@H]5O[C@@H](C)[C@H](OC)[C@@H](OC)[C@H]5OC)C[C@@H]34)[C@@H]2CC(=O)O1.CC[C@H]1CCC[C@H](O[C@H]2CC[C@H](N(C)C)[C@@H](C)O2)[C@@H](C)C(=O)C2=C[C@H]3[C@@H]4C[C@H](O[C@@H]5O[C@@H](C)[C@H](OC)[C@@H](OC)[C@H]5OC)C[C@H]4C=C[C@H]3C2CC(=O)O1: 0
6) CS(=O)(=O)c1cc(C(F)(F)F)ccc1C(=O)c1cnoc1C1CC1: 0
7) CCNc1nc(Cl)nc(NC(C)C)n1: 0
8) COP(=S)(OC)Oc1ccc(SC)c(C)c1: 0
9) CCc1cc(C)cc(CC)c1-c1c(OC(=O)C(C)(C)C)n2n(c1=O)CCOCC2: 0
10) Oc1ccc(Cl)cc1Cc1cc(Cl)ccc1O: 1
11) COP(=S)(OC)Oc1nc(Cl)c(Cl)cc1Cl: 1
12) N#C/N=C1\SCCN1Cc1ccc(Cl)nc1: 0
13) Cc1ccc(/N=C/N(C)/C=N/c2ccc(C)cc2C)c(C)c1: 0
14) CCCCc1c(C)nc(NCC)nc1OS(=O)(=O)N(C)C: 0
15) CNC(=O)ON=C(C)SC: 0
16) CNC(=O)c1cc(C#N)cc(C)c1NC(=O)c1cc(Br)nn1-c1ncccc1Cl: 0
17) CC[C@H](C)C1O[C@]2(C=C[C@@H]1C)C[C@@H]1C[C@@H](C/C=C(\C)[C@@H](O[C@H]3C[C@H](OC)[C@@H](O[C@H]4C[C@H](OC)[C@H](NC)[C@H](C)O4)[C@H](C)O3)[C@@H](C)/C=C/C=C3\CO[C@@H]4[C@H](O)C(C)=C[C@@H](C(=O)O1)[C@]34O)O2 (stereo not given in full): 1
18) CC(C)N(C(=O)COc1nnc(C(F)(F)F)s1)c1ccc(F)cc1: 0
19) COP(=S)(OC)SCN1C(=O)c2ccccc2C1=O: 0
20) Cc1c(COC(=O)[C@@H]2[C@H](/C=C(\Cl)C(F)(F)F)C2(C)C)cccc1-c1ccccc1 (racemic): 0
21) O=C(Nc1ccccc1-c1ccc(Cl)cc1)c1cccnc1Cl: 0
22) COc1ccc(-c2ccccc2)cc1NNC(=O)OC(C)C: 0
23) O=[N+]([O-])c1cc(C(F)(F)F)c(Cl)c([N+](=O)[O-])c1Nc1ncc(C(F)(F)F)cc1Cl: 1
24) CCOCN(C(=O)CCl)c1c(C)cccc1CC: 0
25) CCOC(=O)CC(SP(=S)(OC)OC)C(=O)OCC (stereo not given): 0
26) CC(C)CC(C)c1sccc1NC(=O)c1cn(C)nc1C(F)(F)F (stereo not given): 0
27) CSc1nnc(C(C)(C)C)c(=O)n1N: 0
28) COc1cc(OC)nc(NC(=O)NS(=O)(=O)c2ncccc2C(=O)N(C)C)n1: 0
29) N#Cc1c(Cl)c(Cl)c(Cl)c(C#N)c1Cl: 1
30) COc1cccc(C(=O)NN(C(=O)c2cc(C)cc(C)c2)C(C)(C)C)c1C: 0
31) CC(C)N1C(=O)c2ccccc2NS1(=O)=O: 0
32) N#Cc1c[nH]cc1-c1cccc2c1OC(F)(F)O2: 0
33) CNC(=O)/C=C(\C)OP(=O)(OC)OC: 0
34) Cc1nc(N(C)C)nc(OC(=O)N(C)C)c1C: 0
35) CCSC(C)CC1CC(=O)C(/C(CC)=N/OC/C=C/Cl)=C(O)C1 (mixture of isomers): 0
36) CS(=O)(=O)NC(=O)c1cc(Oc2ccc(C(F)(F)F)cc2Cl)ccc1[N+](=O)[O-]: 0
37) CCNC(=O)NC(=O)/C(C#N)=N/OC: 0
38) CN(C)C(CSS(=O)(=O)O)CSS(=O)(=O)O: 0
39) Cc1cc(C(F)(C(F)(F)F)C(F)(F)F)ccc1NC(=O)c1cccc(I)c1C(=O)NC(C)(C)CS(C)(=O)=O: 0
40) COC(=O)NC(=S)Nc1ccccc1NC(=S)NC(=O)OC: 0
